# credit: PubChem BioAssay AID1851

Target: Cytochrome P450 2C19 (Homo sapiens) (UniProt P33261)
Sequence (P33261 whole entry, looked up): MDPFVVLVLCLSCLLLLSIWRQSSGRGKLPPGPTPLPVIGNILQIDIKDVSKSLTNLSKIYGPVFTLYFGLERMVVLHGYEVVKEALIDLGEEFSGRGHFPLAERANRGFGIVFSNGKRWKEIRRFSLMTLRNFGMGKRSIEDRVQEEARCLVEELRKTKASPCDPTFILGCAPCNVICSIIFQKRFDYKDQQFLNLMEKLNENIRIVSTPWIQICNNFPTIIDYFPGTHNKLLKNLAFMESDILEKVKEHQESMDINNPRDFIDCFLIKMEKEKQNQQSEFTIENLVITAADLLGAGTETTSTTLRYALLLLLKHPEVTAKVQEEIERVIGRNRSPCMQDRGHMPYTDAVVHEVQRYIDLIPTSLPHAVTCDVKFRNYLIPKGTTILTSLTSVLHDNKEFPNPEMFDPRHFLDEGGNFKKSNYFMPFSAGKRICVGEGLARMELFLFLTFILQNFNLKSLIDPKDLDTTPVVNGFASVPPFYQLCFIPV
Assay: Cytochrome panel assay with activity outcomes
Conditions: recombinant CYP, pro-luciferin dealkylation, luminescence, p450-cyp2c19; series mostly up to 57.1 µM
Hit rate of the full screen: of about 16,000 compounds, about 5,800 (36%) were called active. Not shown: some 23% with an inconclusive outcome. The call rests on the fitted dose curve; in most records, active means well fitted curve in the direction sought with a large enough effect; inconclusive means small, poorly fitted or top-dose-only effect, or effect the other way; inactive means no such curve, though single readings can be large or run the other way. The list shows a part of the results.
Form entry, call: pick from label 1 for active, label 0 for inactive

The following compounds have reported results that may help.
Q: Entry CCCC(=O)Nc1ccc2nc(SCC(=O)Nc3ccc(N4CCOCC4)c(Cl)c3)sc2c1 : call = ?
Result: label 1

Q: Entry CCCc1nnc(SCC(=O)O)n1/N=C/c1ccc2c(c1)OCO2 : call = ?
Result: label 0

Q: Entry CC(C)Oc1cccc(C(=O)NC(=S)N2CCN(c3ccc(C(F)(F)F)cc3[N+](=O)[O-])CC2)c1 : call = ?
Result: label 1

For the next question, use this compound.
Q: Entry CCCCOC(=O)CCc1c(C)[nH]c(=O)c(C#N)c1C : call = ?
Result: label 1

###

Biological target: Cytochrome P450 2C19 (Homo sapiens) (UniProt P33261)
Assay: Cytochrome panel assay with activity outcomes
Conditions: recombinant CYP, pro-luciferin dealkylation, luminescence, p450-cyp2c19; series mostly up to 57.1 µM
In all, about 16,000 compounds went through this assay and about 5,800 (36%) were called active. Not shown: some 23% with an inconclusive outcome. Calls follow the shape of the dose curve; as a rule, active = well fitted curve in the direction sought with a large enough effect; inconclusive = small, poorly fitted or top-dose-only effect, or effect the other way; inactive = no such curve, though single readings can be large or run the other way. The list shows a part of the results.
Form entry, call: pick from YES for active, NO for inactive

Q: Entry COc1ccccc1CN1CCC2(CC1)CCN(S(C)(=O)=O)CC2 : call = ?
Result: NO

Q: Entry Cc1cnc(CNc2nc(-c3ccoc3)nc3ccccc23)cn1 : call = ?
Result: NO

Further cases:
Q: Entry CCN(CC)CCNC(=O)C(C)c1nn(C)c(=O)c2ccccc12 (centres undefined) : call = ?
Result: NO

Q: Entry c1ccc2c(NC3CCNCC3)nc(-c3ccoc3)nc2c1 : call = ?
Result: NO

Q: Entry N#Cc1cccc(-c2nc(NCc3cccs3)c3ccccc3n2)c1 : call = ?
Result: NO

Q: Entry CCOC(=O)CNS(=O)(=O)c1cc(-c2nn(C)c(=O)c3ccccc23)ccc1C : call = ?
Result: YES

Q: Entry Cc1ccc(-c2nn(C)c(=O)c3ccccc23)cc1CNC(=O)Cn1nc(-c2ccccc2)c2ccccc2c1=O : call = ?
Result: YES

Q: Entry CC1CCCC(C)N1CCNC(=O)Cn1nc(-c2ccccc2)ccc1=O (centres undefined) : call = ?
Result: NO

Q: Entry CC(C)Cn1c(=O)n(C)c(=O)c2[nH]cnc21 : call = ?
Result: NO

Q: Entry COc1ccc(O[C@H]2C=C[C@@H](c3ccccc3)O[C@H]2CO/N=C2/c3cc(OC)ccc3O[C@@H](c3cccc(OC)c3)[C@H]2O)cc1 : call = ?
Result: YES

Q: Entry N#Cc1cccc(-c2nc(Nc3ccccc3)c3ccccc3n2)c1 : call = ?
Result: NO

Q: Entry CCCNC(=O)OC[C@@H]1O[C@H](CCO/N=C2\c3cc(OC)ccc3O[C@H](c3cccc(OC)c3)[C@H]2O)C=C[C@@H]1Oc1ccc(OC)cc1 : call = ?
Result: YES

Q: Entry COCCNC(=O)CCn1nc(-c2ccc(Cl)cc2)ccc1=O : call = ?
Result: NO

Q: Entry COc1cccc(-c2nc(NCc3cccs3)c3ccccc3n2)c1 : call = ?
Result: YES
